# Tested on: SARS-CoV-2 (Beta, B.1.351)
# measurement-protocol: microbe, parasite or virus in culture
# Assay type: cell-based
# condition-summary: Severe acute respiratory syndrome coronavirus 2, Vero C1008, 48 h; read-out: EC50 in Vero E6 cells, SARS-CoV-2 (Beta, B.1.351)
pEC50: −log10 of the molar value.
pEC50 values for the compounds below.
test-readout: pEC50

INSERT INTO results (compound, observed_measurement) VALUES
  ('CC(C)C(=O)OC[C@H]1O[C@@](C#N)(c2ccc3c(N)ncnn23)[C@H](O)[C@@H]1O', 5.95),
  ('CCC(CC)COC(=O)[C@H](C)N[P@](=O)(OC[C@H]1O[C@@](C#N)(c2ccc3c(N)ncnn23)[C@H](O)[C@@H]1O)Oc1ccccc1 [Remdesivir, remdesivir, reference compound]', 5.75),
  ('CCCC(=O)OC[C@H]1O[C@@](C#N)(c2ccc3c(N)ncnn23)[C@H](O)[C@@H]1O', 5.86),
  ('N#C[C@@]1(c2ccc3c(N)ncnn23)O[C@H](COC(=O)c2ccccc2)[C@@H](O)[C@H]1O', 5.61),
  ('CC(C)CC(=O)OC[C@H]1O[C@@](C#N)(c2ccc3c(N)ncnn23)[C@H](O)[C@@H]1O', 5.55),
  ('CCC(CC)C(=O)OC[C@H]1O[C@@](C#N)(c2ccc3c(N)ncnn23)[C@H](O)[C@@H]1O', 5.64),
  ('N#C[C@@]1(c2ccc3c(N)ncnn23)O[C@H](CO)[C@@H](O)[C@H]1O [GS-441524, reference compound]', 5.87);
